// provenance: patent US20260248972A1

# Procedure summary: in vivo
# Condition set: BALB/c nude, mouse, in vivo, iv, total radioactivity, % ID/g Liver
Note to self: use T only for tissue uptake at 24 h readings below 3 %ID/g; a reading exactly at 3 %ID/g still gets F.

Compound | Category
C[C@@H](O)[C@H](NC(=O)[C@@H]1CSSC[C@H](NC(=O)[C@@H](Cc2ccccc2)NC(=O)CN2CCN(CC(=O)O)CCN(CC(=O)O)CCN(CC(=O)O)CC2)C(=O)N[C@@H](Cc2ccc(O)cc2)C(=O)N[C@H](Cc2c[nH]c3ccccc23)C(=O)N[C@@H](CCCCN)C(=O)N[C@@H]([C@@H](C)O)C(=O)N1)C(=O)O [^177Lu-C-1, metal not drawn, reference compound] | T
C[C@@H](O)[C@H](NC(=O)[C@@H]1CSSC[C@H](NC(=O)[C@@H](Cc2ccccc2)NC(=O)[C@H](CCCCNC(=O)COCCOCCNC(=O)c2cccc(NC(=O)N[C@@H]3CN(C4CCCCC4)c4ccccc4N(CC(=O)C(C)(C)C)C3=O)c2)NC(=O)CN2CCN(CC(=O)O)CCN(CC(=O)O)CCN(CC(=O)O)CC2)C(=O)N[C@@H](Cc2ccc(O)cc2)C(=O)N[C@H](Cc2c[nH]c3ccccc23)C(=O)N[C@@H](CCCCN)C(=O)N[C@@H]([C@@H](C)O)C(=O)N1)C(=O)O [^177Lu-I-36, metal not drawn] | F
C[C@@H](O)[C@H](NC(=O)[C@@H]1CSSC[C@H](NC(=O)[C@@H](Cc2ccccc2)NC(=O)[C@H](CCCCNC(=O)c2cccc(NC(=O)N[C@@H]3CN(C4CCCCC4)c4ccccc4N(CC(=O)C(C)(C)C)C3=O)c2)NC(=O)COCCOCCNC(=O)CN2CCN(CC(=O)O)CCN(CC(=O)O)CCN(CC(=O)O)CC2)C(=O)N[C@@H](Cc2ccc(O)cc2)C(=O)N[C@H](Cc2c[nH]c3ccccc23)C(=O)N[C@@H](CCCCN)C(=O)N[C@@H]([C@@H](C)O)C(=O)N1)C(=O)O [^177Lu-I-35, metal not drawn] | F
CC(C)(C)C(=O)CN1C(=O)[C@H](NC(=O)Nc2cccc(C(=O)N[C@@H](CCC(=O)N[C@@H](CCC(=O)N[C@@H](CCC(=O)N[C@@H](CCCCNC(=O)COCCOCCNC(=O)COCCOCCNC(=O)CCC(C(=O)O)N3CCN(CC(=O)O)CCN(CC(=O)O)CCN(CC(=O)O)CC3)C(N)=O)C(=O)O)C(=O)O)C(=O)O)c2)CN(C2CCCCC2)c2ccccc21 (stereo partly drawn) [^177Lu-C-4, metal not drawn, reference compound] | T

Is it true that tissue uptake at 24 h reported for CCCC[C@H](NC(=O)[C@H](Cc1c[nH]c2ccccc12)NC(=O)CNC(=O)[C@H](Cc1ccc(O)cc1)NC(=O)[C@H](C)NC(=O)[C@@H](CCC(=O)O)NC(=O)[C@@H](CCC(=O)O)NC(=O)[C@@H](CCC(=O)O)NC(=O)[C@@H](CCC(=O)O)NC(=O)[C@@H](CCC(=O)O)NC(=O)[C@@H](CCC(=O)O)NC(=O)CN1CCN(CC(=O)O)CCN(CC(=O)O)CCN(CC(=O)O)CC1)C(=O)N[C@@H](CC(=O)O)C(=O)N[C@@H](Cc1ccccc1)C(N)=O [^177Lu-C-2, metal not drawn, reference compound] is less than 3 %ID/g? T

Is it true that tissue uptake at 24 h reported for C[C@@H](O)[C@H](NC(=O)[C@@H]1CSSC[C@H](NC(=O)[C@@H](Cc2ccccc2)NC(=O)COCCOCCNC(=O)COCCOCCNC(=O)[C@H](CCCCNC(=O)c2cccc(NC(=O)N[C@@H]3CN(C4CCCCC4)c4ccccc4N(CC(=O)C(C)(C)C)C3=O)c2)NC(=O)CN2CCN(CC(=O)O)CCN(CC(=O)O)CCN(CC(=O)O)CC2)C(=O)N[C@@H](Cc2ccc(O)cc2)C(=O)N[C@H](Cc2c[nH]c3ccccc23)C(=O)N[C@@H](CCCCN)C(=O)N[C@@H]([C@@H](C)O)C(=O)N1)C(=O)O [Compound 177Lu-I-39, metal not drawn] is less than 3 %ID/g? T

###

# Procedure summary: in vivo
# Condition set: BALB/c nude, mouse, in vivo, iv, total radioactivity, % ID/g Muscle
Readout type: tissue uptake at 24 h
Put down the number, then write its unit next to it.

Compound | tissue uptake at 24 h
CCCC[C@H](NC(=O)[C@H](Cc1c[nH]c2ccccc12)NC(=O)CNC(=O)[C@H](Cc1ccc(O)cc1)NC(=O)[C@H](C)NC(=O)[C@@H](CCC(=O)O)NC(=O)[C@@H](CCC(=O)O)NC(=O)[C@@H](CCC(=O)O)NC(=O)[C@@H](CCC(=O)O)NC(=O)[C@@H](CCC(=O)O)NC(=O)[C@@H](CCC(=O)O)NC(=O)CN1CCN(CC(=O)O)CCN(CC(=O)O)CCN(CC(=O)O)CC1)C(=O)N[C@@H](CC(=O)O)C(=O)N[C@@H](Cc1ccccc1)C(N)=O [^177Lu-C-2, metal not drawn, reference compound] | 0.01 %ID/g

Consider the record given below.
Entry under test: C[C@@H](O)[C@H](NC(=O)[C@@H]1CSSC[C@H](NC(=O)[C@@H](Cc2ccccc2)NC(=O)[C@H](CCCCNC(=O)c2cccc(NC(=O)N[C@@H]3CN(C4CCCCC4)c4ccccc4N(CC(=O)C(C)(C)C)C3=O)c2)NC(=O)COCCOCCNC(=O)CN2CCN(CC(=O)O)CCN(CC(=O)O)CCN(CC(=O)O)CC2)C(=O)N[C@@H](Cc2ccc(O)cc2)C(=O)N[C@H](Cc2c[nH]c3ccccc23)C(=O)N[C@@H](CCCCN)C(=O)N[C@@H]([C@@H](C)O)C(=O)N1)C(=O)O [^177Lu-I-35, metal not drawn] . Its tissue uptake at 24 h was 0.12 %ID/g

###

# Procedure summary: in vivo
# Condition set: BALB/c nude, mouse, in vivo, iv, total radioactivity, % ID/g Kidney
# Procedure: To a 0.5 M NaOAc buffer (20-50 μL, pH=4.5) was added 4 μL of exemplary or comparator compound in DMSO stock solution (2000 μM) and 2 mCi ^177Lu (ITM Isotope Technologies Munich), the resulting mixture was heated to 95° C. for 15 min. The resulting product was analyzed by radio-TLC and radio-HPLC (column: Shim-pack GIST 5 μm 4.6*150 mm; buffer A: 0.2% formic acid H2O; buffer B: 0.1% formic acid acetonitrile; flow rate: 1 mL/min; gradient: 0-5 min: 10% B to 95% B; then 5-8 min: 95% B). […]
Each entry below carries its recorded tissue uptake at 24 h.
Kindly answer with a numeric value in %ID/g, unit omitted.

Check out these entries, answers already filled in.
Molecule | Unit string | tissue uptake at 24 h
CCCC[C@H](NC(=O)[C@H](Cc1c[nH]c2ccccc12)NC(=O)CNC(=O)[C@H](Cc1ccc(O)cc1)NC(=O)[C@H](C)NC(=O)[C@@H](CCC(=O)O)NC(=O)[C@@H](CCC(=O)O)NC(=O)[C@@H](CCC(=O)O)NC(=O)[C@@H](CCC(=O)O)NC(=O)[C@@H](CCC(=O)O)NC(=O)[C@@H](CCC(=O)O)NC(=O)CN1CCN(CC(=O)O)CCN(CC(=O)O)CCN(CC(=O)O)CC1)C(=O)N[C@@H](CC(=O)O)C(=O)N[C@@H](Cc1ccccc1)C(N)=O [^177Lu-C-2, metal not drawn, reference compound] | %ID/g | 0.71
C[C@@H](O)[C@H](NC(=O)[C@@H]1CSSC[C@H](NC(=O)[C@@H](Cc2ccccc2)NC(=O)COCCOCCNC(=O)[C@H](CCCCNC(=O)c2cccc(NC(=O)N[C@@H]3CN(C4CCCCC4)c4ccccc4N(CC(=O)C(C)(C)C)C3=O)c2)NC(=O)CN2CCN(CC(=O)O)CCN(CC(=O)O)CCN(CC(=O)O)CC2)C(=O)N[C@@H](Cc2ccc(O)cc2)C(=O)N[C@H](Cc2c[nH]c3ccccc23)C(=O)N[C@@H](CCCCN)C(=O)N[C@@H]([C@@H](C)O)C(=O)N1)C(=O)O [Compound 177Lu-I-37, metal not drawn] | %ID/g | 7.79

Entry under test: C[C@@H](O)[C@H](NC(=O)[C@@H]1CSSC[C@H](NC(=O)[C@@H](Cc2ccccc2)NC(=O)[C@H](CCCCNC(=O)COCCOCCNC(=O)c2cccc(NC(=O)N[C@@H]3CN(C4CCCCC4)c4ccccc4N(CC(=O)C(C)(C)C)C3=O)c2)NC(=O)CN2CCN(CC(=O)O)CCN(CC(=O)O)CCN(CC(=O)O)CC2)C(=O)N[C@@H](Cc2ccc(O)cc2)C(=O)N[C@H](Cc2c[nH]c3ccccc23)C(=O)N[C@@H](CCCCN)C(=O)N[C@@H]([C@@H](C)O)C(=O)N1)C(=O)O [^177Lu-I-36, metal not drawn] . Its tissue uptake at 24 h was 18.4

Entry under test: C[C@@H](O)[C@H](NC(=O)[C@@H]1CSSC[C@H](NC(=O)[C@@H](Cc2ccccc2)NC(=O)CN2CCN(CC(=O)O)CCN(CC(=O)O)CCN(CC(=O)O)CC2)C(=O)N[C@@H](Cc2ccc(O)cc2)C(=O)N[C@H](Cc2c[nH]c3ccccc23)C(=O)N[C@@H](CCCCN)C(=O)N[C@@H]([C@@H](C)O)C(=O)N1)C(=O)O [^177Lu-C-1, metal not drawn, reference compound] . Its tissue uptake at 24 h was 1.21
